molecule: COc1cc2c(Nc3ccc(Cl)cc3F)ncnc2cc1OCc1csc(C)n1.Cl
melting point: 220 to 225 °C

molecule: COc1cc2c(Nc3ccc(Cl)cc3F)ncnc2cc1OCCc1nccn1C.Cl
melting point: 224 to 229 °C

molecule: COc1cc2c(Nc3ccc(Cl)cc3F)ncnc2cc1OCc1ccncn1.Cl
melting point: 237 to 239 °C

molecule: COc1cc2c(Nc3ccc(Cl)cc3F)ncnc2cc1OCc1ccnc(N(C)C)c1.Cl
melting point: 290 °C

molecule: COc1cc2c(Nc3cc(O)c(C)cc3F)ncnc2cc1OCc1ccc(C#N)cc1.Cl
melting point: 265 to 270 °C

molecule: COc1cc2c(Nc3ccc(C)c(O)c3)ncnc2cc1OCc1csc(C)n1.Cl
melting point: 243 to 245 °C

molecule: COc1cc2c(Nc3ccc(Cl)cc3F)ncnc2cc1OCCCOc1ccncc1 [Example 67]
melting point: 138 to 140 °C

molecule: COc1cc2c(Nc3cc(O)c(C)cc3F)ncnc2cc1OCCCc1ccncc1.Cl
melting point: 246 to 248 °C

molecule: Cl.Oc1cc(Nc2ncnc3cc(OCc4ccccc4)ccc23)c(F)cc1Cl
melting point: 253 to 257 °C

molecule: COc1cc2c(Nc3ccc(C)c(O)c3)ncnc2cc1OCc1nccn1C.Cl
melting point: 257 to 260 °C

molecule: COc1cc2c(Nc3ccc(Cl)cc3F)ncnc2cc1OCCCSc1nccn1C [Example 66]
melting point: 199 to 201 °C
